What growth was measured for each of the following?
# Tested on: SF-539 CNS
# assayComment: NCI-60 one-dose screen, 48 h (100 = growth as untreated, 0 = no growth, -100 = all killed)
# runParameters: 10 µM unless noted
Compounds without any hit were thinned out: in the full panel of roughly 83,000, 20% have a hit.
I only need the number, in %, no unit after it.

Recorded growth (compound `COc1cccc(CCNc2ncnc3c2ncn3Cc2nnc3c4ccccc4c(Cl)nn23)c1` ): 72.6

Recorded growth (compound `O=C(CSc1nnc(-c2cc(-c3ccccc3)nc3ccccc23)n1-c1ccccc1)Nc1ccc(C(=O)/C=C/c2ccc(Cl)cc2)cc1` ): 96.7

Recorded growth (compound `O=C(/C=C/c1ccc(Cl)cc1)c1cccc(OCCCOc2cccc(C(=O)/C=C/c3ccc(Cl)cc3)c2)c1` ): 112

Recorded growth (compound `O=C(/C=C/c1cccc(Cl)c1Cl)Nc1ncc(Cc2ccccc2Cl)s1` ): 11.5

Recorded growth (compound `N=C(N)c1ccc(-c2ccc(-c3ccccc3)s2)cc1` ): 78.5

Recorded growth (compound `NS(=O)(=O)c1ccc(C(=O)NN2C(=O)c3c(Br)c(Br)c(Br)c(Br)c3C2=O)cc1` ): 96.9

Recorded growth (compound `C/C(Cc1ccc(Cl)cc1)=C(\c1ccc(OCCCN(C)C)cc1)c1ccc(OC(=O)Cc2ccccc2)cc1` ): 105

Recorded growth (compound `CCOc1cccc(/C=N/NC(=O)c2cccc(Nc3ccnc(C(F)(F)F)c3)c2)c1O` ): 14.8

Recorded growth (compound `CCOC(=O)c1cc(C(=O)c2cc(OC)c(OC)c(OC)c2)n2ccccc12` ): -6.66

====

# System: EKVX NSCLC
# assayComment: NCI-60 one-dose screen, 48 h
# runParameters: 10 µM unless noted
Compounds without any hit were thinned out: in the full panel of roughly 83,000, 20% have a hit. Activity calls are given as the source filed them. The calls were made as follows: active = growth percent below 10; inactive = the rest.
Pick one: active, inactive

Input: // outcome(item) with item = `CNC(=O)c1cc(Oc2ccc3c(c2)sc2nc(-c4ccc(OC)cc4)cn23)ccn1`
Output: inactive

Input: // outcome(item) with item = `Cc1ccc(S(=O)(=O)Oc2ccc3sc4cccc(NCCN(C)C)c4c(=O)c3c2)cc1`
Output: active

Input: // outcome(item) with item = Cc1ccc2nc(/C(C#N)=C(/CCCO)NC(Cc3ccccc3)C(=O)OCc3ccccc3)[nH]c(=O)c2c1 (centres undefined)
Output: inactive

Input: // outcome(item) with item = `CCN(CC)CCCOc1ccc2ncnc(Nc3ccc(Oc4cccc(C(F)(F)F)c4)c(Cl)c3)c2c1`
Output: inactive

Input: // outcome(item) with item = `O=C(CCCCCNC(=O)c1cc(=O)c(O)co1)Nc1ccccc1`
Output: inactive

Input: // outcome(item) with item = CC1=CCC(OC(=O)C(C)(C)CC(O)(C(C)O)C(O)C2(C)C=CC(Cc3ccc(C(C)C)cc3)(C(C)C)CC2)(C(C)C)CC1 (centres undefined)
Output: inactive

Input: // outcome(item) with item = `CN(C)c1ccc(-c2ccc3c(c2)c(-c2ccccc2)nc(=O)n3C)cn1`
Output: inactive

Input: // outcome(item) with item = `C[C@]1(O)CC(=O)[C@]2(O)C3=C(C=C[C@]2(O)C1)C(=O)c1c(O)cccc1C3=O`
Output: inactive

Input: // outcome(item) with item = O=C(NC1CC(F)C1)c1cc2cccnc2n1-c1ccc(Cl)c(Cl)c1 (centres undefined)
Output: inactive

Input: // outcome(item) with item = `N#Cc1cncc(-c2ccc3ncnc(Nc4cccc(Cl)c4)c3c2)c1`
Output: inactive

Input: // outcome(item) with item = `CC1(C)CC(=O)c2c(nn(-c3ccc(Br)cc3)c2-c2cn(-c3ccccc3)nc2-c2cccnc2)C1`
Output: inactive

Input: // outcome(item) with item = `COc1ccc(/C(C)=C(\c2ccc(Cl)cc2)c2ccc(OCCN3CCCCC3)cc2)cc1`
Output: inactive

Input: // outcome(item) with item = C=C1CC[C@@H]2[C@](C)(COC(C)=O)[C@H](OC(C)=O)CC[C@@]2(C)[C@@H]1CC(Nc1ccc(S(=O)(=O)NC(C)=O)cc1)C1=CCOC1=O (some centres undefined)
Output: inactive

Input: // outcome(item) with item = `CCS/C(Nc1ccccc1)=C(\C#N)C(=O)Nc1ccc(OC)cc1`
Output: inactive

Input: // outcome(item) with item = `S=c1nc2oc(-c3ccccc3)c(-c3ccccc3)c2c(/N=C\c2ccco2)[nH]1`
Output: inactive

Input: // outcome(item) with item = `O=C(O)c1ccc(-c2ccc(/C=N/Nc3nc(Nc4ccccc4)nc(N4CCCCC4)n3)o2)cc1`
Output: inactive

Input: // outcome(item) with item = `Oc1c(CN2CCC(N3CCCCC3)CC2)cc(Cc2cc(CN3CCC(N4CCCCC4)CC3)c(O)c3ncccc23)c2cccnc12`
Output: inactive

Input: // outcome(item) with item = `Cc1ccc(CNc2c3ccccc3nc3ccccc23)cc1`
Output: inactive

Input: // outcome(item) with item = `Cc1nn(-c2ccccc2)c(N)c1N=C1NC(=O)/C(=C/c2ccc(Br)cc2)S1`
Output: inactive

Input: // outcome(item) with item = `Cc1n[nH]c2ccc(Br)cc2c1=O`
Output: inactive

Input: // outcome(item) with item = `C=C1C(=O)O[C@H]2[C@H]1CC/C(COC(=O)/C=C\C(=O)NCc1ccc(Cn3c(=O)sn(CCCCC)c3=O)cc1)=C\CC[C@@]1(C)O[C@@H]21`
Output: inactive

Input: // outcome(item) with item = Nc1nc(N)c2c(n1)NC(c1cccc(Nc3ccnc4cc(C(F)(F)F)ccc34)c1)CC(c1ccccc1)=N2 (centres undefined)
Output: inactive

Input: // outcome(item) with item = `C=C(C)[C@@H]1CC[C@]2(C)[C@H](CC=C3[C@@H]4CC(C)(C)CC[C@]4(CO)CC[C@]32C)[C@@]1(C)CCCN`
Output: inactive

Input: // outcome(item) with item = `COc1ccc2c(c1)/C(=N/c1n[nH]c(=S)s1)C(=O)N2`
Output: inactive

Input: // outcome(item) with item = `Cn1cc(-c2ccc(-c3cn(C)c4ccc(Cl)cc34)[nH]2)c2cc(Cl)ccc21`
Output: active

Input: // outcome(item) with item = `COc1ccc2nc(Cl)c(/C=C3\CC(c4ccccc4)=NN(c4ccccc4)C3=O)cc2c1`
Output: inactive

Input: // outcome(item) with item = `C=C1C(=O)O[C@H]2[C@H]1CC/C(COC(=O)NCc1ccc(Cn3c(=O)sn(-c4ccc(C#N)cc4)c3=O)cc1)=C\CC[C@@]1(C)O[C@@H]21`
Output: inactive

Input: // outcome(item) with item = Cc1nc2sc(C(=O)Nc3cccc(Br)c3C)c(N)c2cc1C(O)c1ccccc1 (centres undefined)
Output: inactive

Input: // outcome(item) with item = `O=C1c2ccccc2C(=O)c2c1cc1c(c2[N+](=O)[O-])OCO1`
Output: inactive

Input: // outcome(item) with item = `CC1(C)[C@@H](O[C@@H]2OC[C@@H](O[C@@H]3O[C@H](CO)[C@@H](O)[C@H](O)[C@H]3O[C@@H]3OC[C@@H](O)[C@H](O)[C@H]3O)[C@H](O)[C@H]2O[C@@H]2O[C@H](CO)[C@@H](O)[C@H](O)[C@H]2O)CC[C@]2(C)[C@H]3CC[C@]45OC[C@@]6(CC[C@](C)(C=O)C[C@H]64)[C@H](O)C[C@@]5(C)[C@]3(C)CC[C@@H]12`
Output: active

Input: // outcome(item) with item = `CN1CCN(C(=S)SCCCCOc2cc(=O)oc3ccccc23)CC1`
Output: inactive

Input: // outcome(item) with item = `COc1ccc(-c2cc(-c3ccccc3)nc(N3CCN(CCNc4ccnc5cc(Cl)ccc45)CC3)n2)cc1`
Output: inactive

Input: // outcome(item) with item = `C#CCn1cnc2cnc(Nc3cccc(NC(=O)C=C)c3)nc21`
Output: inactive

Input: // outcome(item) with item = `Cn1cc(-c2csc(-c3cn(CCCN4CCOCC4)c4ccccc34)n2)c2cccnc21`
Output: inactive
